system: HT29 sg-Ctrl (RNF43 wildtype); assay: cell viability activity relative to DMSO (negative = inhibition); higher = more viable cells (less growth inhibition); conditions: 5 µM; 96 h
Rule: cell viability activity below -40% gives label 1, anything at or above gives label 0.

Ask: In plain terms, does Nc1nc(Nc2ccc(S(N)(=O)=O)cc2)nn1C(=O)c1c(F)cccc1F come in under -40% for cell viability activity?
Reply: label 0

Ask: One more molecule: CC[C@H](CC#N)OC(=O)N[C@@H](C)c1cccc(NC(=O)Nc2ccc(-c3cnco3)c(OC)c2)c1
Reply: label 1

Ask: One more molecule: CCc1cnn2c(NCc3ccc[n+]([O-])c3)cc(N3CCCC[C@H]3CCO)nc12
Reply: label 1

Ask: One more molecule: CN(C)CCOc1ccc(/C(=C(/CCCl)c2ccccc2)c2ccccc2)cc1
Reply: label 1

Ask: One more molecule: COc1cc(C(=O)N2CCC(N3CCN(C)CC3)CC2)ccc1Nc1ncc2c(n1)N(C)c1ccccc1C(=O)N2C
Reply: label 1

Ask: One more molecule: CC(C)(C)c1[nH]cnc1/C=c1\[nH]c(=O)/c(=C/c2ccccc2)[nH]c1=O
Reply: label 1

Ask: One more molecule: Nc1ccc(-c2ccc3ncc4ccc(=O)n(-c5cccc(C(F)(F)F)c5)c4c3c2)cn1
Reply: label 1

Ask: One more molecule: COC(=O)Nc1nc2ccc(SC(C)C)cc2[nH]1
Reply: label 0

Ask: One more molecule: COc1cc(-c2ncn(/C=C/C(=O)OC(C)C)n2)cc(C(F)(F)F)c1
Reply: label 1

Ask: One more molecule: CCCCCC(O)c1cccc(OCc2ccc3ccccc3n2)c1 (stereo unspecified)
Reply: label 1

Ask: One more molecule: CCCC[C@H](NC(C)=O)C(=O)N[C@H]1CC(=O)NCCCC[C@@H](C(=O)O)NC(=O)[C@H](Cc2c[nH]c3ccccc23)NC(=O)[C@H](CCCNC(=N)N)NC(=O)[C@@H](Cc2ccccc2)NC(=O)[C@H](Cc2c[nH]cn2)NC1=O
Reply: label 0

Ask: One more molecule: Cc1noc2c1-c1ccccc1C(c1ccc(Cl)cc1)=N[C@H]2CC(N)=O
Reply: label 1

Ask: One more molecule: CC[C@H](C)[C@@H]([C@@H](CC(=O)N1CCC[C@H]1[C@H](OC)[C@@H](C)C(=O)N[C@@H](Cc1ccccc1)c1nccs1)OC)N(C)C(=O)[C@@H](NC(=O)[C@H](C(C)C)N(C)C)C(C)C
Reply: label 1

Ask: One more molecule: CC1NC(=O)C(N)CNC(=O)C(C2CCN=C(N)N2)NC(=O)/C(=C\NC(N)=O)NC(=O)C(CNC(=O)CC(N)CCCN)NC1=O (stereo unspecified)
Reply: label 0

Ask: One more molecule: C=CCNC1=C2C[C@@H](C)C[C@H](OC)[C@H](O)[C@@H](C)/C=C(\C)[C@H](OC(N)=O)[C@@H](OC)/C=C\C=C(/C)C(=O)NC(=CC1=O)C2=O
Reply: label 1

Ask: One more molecule: FC(F)(F)Oc1ccc2nc(-c3ccc(OCCOCCOc4ccc(-c5nc6ccc(OC(F)(F)F)cc6[nH]5)nc4)cn3)[nH]c2c1
Reply: label 0

Ask: One more molecule: CCOC(=O)[C@H](Cc1ccccc1)NC(=O)c1cc(Cl)c(OCCN2CCN(C)CC2)c(Cl)c1O
Reply: label 1

Ask: One more molecule: CCNC(=O)c1noc(-c2cc(C(C)C)c(O)cc2O)c1-c1ccc(CN2CCOCC2)cc1
Reply: label 1

Ask: One more molecule: CC1(C)CC[C@]2(C(=O)O)CC[C@]3(C)[C@H](C(=O)C=C4[C@@]5(C)C=C(C#N)C(=O)C(C)(C)[C@@H]5CC[C@]43C)[C@@H]2C1
Reply: label 1

Ask: One more molecule: CC(C)NC[C@@H](C(=O)N1CCN(c2ncnc3c2[C@H](C)C[C@H]3O)CC1)c1ccc(Cl)cc1
Reply: label 0

Ask: One more molecule: CCCC1(CCC)CCC2(CCN(CCCN(CC)CC)C2)CC1
Reply: label 1
